Target: Fc-fusion protein of human carbonic anhydrase IX (human, UniProt Q16790 38-414)
Experiment: SPR, captured hCAIX-Fc; t1/2 category A: >15.0 min
Starred links: 1 amine or outer side, 2 acyl side, 3 side chain; linkers in the order of their positions; H or OH if unused. Positions of bridges follow the written chain, without caps; N, C: chain ends. Non-standard residues stand in square brackets, D forms with d. *: point of attachment. Phe(3-NHCO(CH2)3SO2NH2) = N[C@@H](Cc1cccc(NC(=O)CCCS(N)(=O)=O)c1)C(=O)O; DOTA = O=C(O)CN1CCN(CC(=O)O)CCN(CC(=O)*)CCN(CC(=O)O)CC1; mXylylene = c1cc(C[*:1])cc(C[*:2])c1; Dap = NC[C@H](N)C(=O)O
// reported t1/2 (half-life of the complex, SPR) for each item listed

{"binder": "{DOTA}-ECE[dP]D[Phe(3-NHCO(CH2)3SO2NH2)]LTW[Dap]C-NH2 (lactam 1-10; linker 2-11 via mXylylene, also called DPI-4503) [3BP-4503]", "t1/2 (half-life of the complex, SPR)": "> 15 min"}

Kindly review the next binder as well.
For this binder ( {DOTA}-DCE[dP]D[Phe(3-NHCO(CH2)3SO2NH2)]LTW[Dap]C-NH2 (lactam 1-10; linker 2-11 via mXylylene; SMILES CC(C)C[C@@H]1NC(=O)[C@H](Cc2cccc(NC(=O)CCCS(N)(=O)=O)c2)NC(=O)[C@H](CC(=O)O)NC(=O)[C@H]2CCCN2C(=O)[C@H](CCC(=O)O)NC(=O)[C@@H]2CSCc3cccc(c3)CSC[C@@H](C(N)=O)NC(=O)[C@H](CNC(=O)C[C@H](NC(=O)CN3CCN(CC(=O)O)CCN(CC(=O)O)CCN(CC(=O)O)CC3)C(=O)N2)NC(=O)[C@H](Cc2c[nH]c3ccccc23)NC(=O)[C@H]([C@@H](C)O)NC1=O) [3BP-4488] ), measured t1/2 (half-life of the complex, SPR) is > 15 min
